- TEST_DETAILS: Rat PK: plasma xanomeline after subcutaneous (SC) dosing of xanomeline, prodrugs or pamoate salts at 5 mg/kg or 3.5 mg/kg (Example A-2)
- Type: in vivo, male Sprague-Dawley (SD) rats
- CONDITION_LABEL: male, Sprague-Dawley, plasma, sc, parent xanomeline dosed SC, individual animals, read-out: Xanomeline (SC) T1/2 (converted)
TEST_READOUT: half-life (h)
Expressed in h, but write only the number.

Reported half-life ( CCCCCCOc1nsnc1C1=CCCN(C)C1 [Xanomeline] ) = 1.5

###

Property: concentration at 2 h; scope: individual compounds
- TEST_DETAILS: Rat PK: plasma prodrug concentration after intramuscular (IM) dosing of xanomeline prodrugs at 5 mg/kg (Example A-4)
- Assay type: in vivo, male Sprague-Dawley (SD) rats
- CONDITION_LABEL: male, Sprague-Dawley, intramuscular, 5 mg/kg, 2.00 h, IM 5 mg/kg of xanomeline, Mean, read-out: Prodrug Plasma Concentrations Following Intramuscular Dosing

| COMPOUND | TEST_VALUE |
| --- | --- |
| CCCCCCOc1nsnc1C1=CCC[N+](C)(C(C)OC(=O)C(C)(C)C)C1 (centres unmarked) | 83 ng/mL |

From here, focus on the item given below.
Please fill in: concentration at 2 h reported for CCCCCCOc1nsnc1C1=CCC[N+](C)(C(CC)OC(=O)C(C)(C)C)C1 (centres unmarked) = 71.3 ng/mL
